Tested on: UACC-257
Test method notes: NCI tumour cell line growth inhibition, 48 h
Activity calls are given as the source filed them. Rule as the data show it: active = GI50 up to about 1.1 µM and inactive = higher.
Reported metric: GI50

Given the entry "CN(C)c1ccc2oc(=O)c3ccccc3c2c1" , report its measured GI50.
> 100 µM (inactive)

What value of GI50 has been reported for the following compound? CC1=C(C#N)C23C(=O)c4ccccc4C(=O)C2=C(O)C=CC3(O)N1 (centres undefined)
2.07 µM (inactive)

Report GI50 for OCC(O)C(O)C(O)C1SC(c2ccccc2)=NN1c1ccccc1 (centres undefined) please.
> 89.1 µM (inactive)

Quick one: GI50 for "COc1cc2ccc(CC(=O)O)cc2cc1OC" ?
> 100 µM (inactive)

// returns reported GI50 for input "Cc1ccc(NC(=O)C(=O)CC(=O)c2c(C)[n+]([O-])c3ccccc3[n+]2[O-])cc1C"
> 100 µM (inactive)

Consider the compound shown here: "COC(=O)CCCc1nc2ccccc2nc1/N=N/c1ccccc1" What is its recorded GI50?
45.9 µM (inactive)

What value of GI50 has been recorded for this entry: "CCN(CC)CCNC(=O)c1ccc([N+](=O)[O-])cc1OC"
> 100 µM (inactive)

Would you mind telling me what GI50 value was observed for "O=[N+]([O-])c1cc(Cl)ccc1OCc1ccccc1" ?
45.3 µM (inactive)

What value of GI50 has been recorded for this entry: COC(=O)C(C)Sc1nc2cc(Cl)ccc2s1 (centres undefined)
> 100 µM (inactive)

* * *

Could you please report measured GI50 for the items listed next?
System: RXF 393
Test method notes: NCI tumour cell line growth inhibition, 48 h
Activity calls are given as the source filed them. Rule as the data show it: active = GI50 up to about 1.1 µM and inactive = higher.

I am curious: what GI50 value has been reported for "O=C1Oc2ccccc2C(=O)/C1=C/N1C(=O)/C(=C/c2ccc([N+](=O)[O-])cc2)SC1=S" ?
25.7 µM (inactive)

Return reported GI50; argument: C[C@]12CC[C@@H]3c4cc(C=O)c(OCc5ccccc5)cc4CC[C@H]3[C@@H]1CCC2OCc1ccccc1 (stereo not given in full)
> 100 µM (inactive)

Query: GI50; subject: Cc1ccc2[nH]c(=O)c(C(C#N)c3ccccc3)nc2c1 (stereo not given)
23 µM (inactive)

# input compound: "Cc1cn([C@@H]2C[C@H](CO)[C@@H]2O)c(=O)[nH]c1=O" ; wanted: its GI50
> 100 µM (inactive)

What value of GI50 has been recorded for this entry: COC(=O)C(C(=O)C(=O)Nc1nc2ccc(OC)cc2s1)c1cnc2ccccc2n1 (stereo not given)
> 100 µM (inactive)

What GI50 value was documented for this compound, "CC(=O)O[C@H]1C(=O)[C@@]2(C)[C@H]([C@H](OC(=O)C3CCCCC3)[C@]3(O)C[C@H](OC(=O)[C@H](O)[C@@H](NC(=O)OC(C)(C)C)c4ccccc4)C(C)=C1C3(C)C)[C@]1(OC(C)=O)CO[C@@H]1C[C@@H]2O" ?
0.0331 µM (active)

Given the compound "O=C1NC2=NOC(=O)NC2=NO1" , what is its reported GI50?
> 200 µM (inactive)

Name the reported GI50 value associated with the compound "O=c1cc[nH]c2ccc3nn[nH]c3c12"
> 100 µM (inactive)

Value lookup for GI50; key = CN1CCN(CCSC2Cc3cc(Cl)ccc3Sc3ccccc32)CC1 (stereo not given)
4.19 µM (inactive)

# GI50 lookup, item "COC(=O)c1ccc(NCC2=CC(=O)c3ccccc3C2=O)cc1"
22 µM (inactive)

What does the data say about its GI50? Entry: "CN(C)c1ccc(/C=C2\N=C(N/N=C/c3ccccc3)NC2=O)cc1"
20.2 µM (inactive)

What value of GI50 has been reported for the following compound? "Oc1ccc(Cl)cc1CN1CCN(Cc2cc(Cl)ccc2O)C1"
0.895 µM (active)

Can you look up the measured GI50 of "CCCc1cc(=O)oc2c3c(c4c(c12)OC(C)(C)CC4)O[C@H](C)[C@@H](C)[C@H]3O" for me?
21.3 µM (inactive)

Can you share its GI50? I mean this compound: "COc1ccc(C[C@@H]2OC3(C=CC(=O)C=C3)O[C@H]2Cc2ccc(OC)cc2)cc1"
0.277 µM (active)

Fill blank: measured GI50 of the compound COc1ccc(C2=Nc3c(nc(SC)[nH]c3=O)NC(c3ccccc3)C2)cc1 (stereo not given) is ____.
20.7 µM (inactive)

* * *

System: M14
Test method notes: NCI tumour cell line growth inhibition, 48 h
Calls of active or inactive are those of the source. Rule as the data show it: active = GI50 up to about 1.1 µM and inactive = higher.
Classes to choose from: y (active), n (inactive)

Would you mind telling me which call this test gave "Oc1ccc(Cl)cc1CN1CCN(Cc2cc(Cl)ccc2O)C1" ?
y

Which outcome did this test record for the compound COc1ccc(C2SC(C)C(=O)N2c2nc(-c3nc(-c4ccc(Cl)cc4)cs3)cs2)cc1 (stereo not drawn) ?
n

Hi team, can someone confirm the assay call for "COC(=O)CCCc1nc2ccccc2nc1/N=N/c1ccccc1" ?
n

Dear colleague, could you share the recorded outcome for COc1cccc2c(=O)c3c(n(C)c12)OC(C(C)C)C3 (stereo not drawn) when you have a moment?
n

// param item: COc1cc(C)c(C2NC(=O)c3ccccc3N2)cc1C (stereo not drawn) ; yields the recorded call
y

Could you please tell me the result logged for COc1ccc(NC(=O)C(=O)C2CNC(=O)NC2=O)c(OC)c1 (stereo not drawn) in this assay?
n

Short answer needed: outcome of this test for Cn1c2c(c3ccccc31)CCN1C(=O)C34CCCC3CC21S4 (stereo not drawn) ?
n

Look up the recorded call for CC1=C(C#N)C23C(=O)c4ccccc4C(=O)C2=C(O)C=CC3(O)N1 (stereo not drawn) in this test.
n

Tell me the assay call for COc1cccc(C23CCN(C)C(CC(O)C2)C3)c1OC (stereo not drawn) please.
n

Write down the call the test reported for this compound. Item: O=C1NNC2NC(=O)C3(NN2C1=O)c1ccccc1-c1ccccc13 (stereo not drawn)
n

Returns: the outcome recorded for CC1NC(=O)c2c(-c3ccccc3)nn(-c3ccccc3)c2NC1=O (stereo not drawn) in this assay.
n

For "COC(=O)/C(=C\c1cn(C(C)=O)c2ccccc12)P(=O)(OC)OC" , what call appears in the results of this test?
n

Outcome? CCSC1SC(c2ccccc2)(c2ccccc2)c2ccccc21 (stereo not drawn)
n

What is the recorded call for this compound in the test? "Sc1nn2c(COc3ccc(Cl)cc3)nnc2s1"
n

Which outcome was entered for the compound "O=C(CSc1nnc(-c2ccc(/N=C\c3ccc(Cl)cc3)cc2)o1)Nc1cccc(Cl)c1" in this test?
n

What classification did "Cn1c2c(cc(-c3ccccc3)c1=O)COc1ccccc1-2" end up with in this test?
n

Test call, this compound: CCN(C1=CC(=O)NC2CCCCN12)c1ccccc1 (stereo not drawn)
n

I would be grateful if you could indicate the recorded call for CCC1(N=[N+]=[N-])C(=O)c2ccccc2N(c2ccccc2)C1=O (stereo not drawn) .
n

Which outcome was assigned to "O=C(O)CN(c1ccccc1)S(=O)(=O)c1ccc(Cl)cc1" in this test?
n

For "C(=N\c1ccc(-c2nc3ccccc3[nH]2)cc1)/c1ccco1" , which call appears in the assay record?
n

Could you check what this test reported for COC(=O)C(Cc1ccccc1)NS(=O)(=O)c1ccc(-c2c3nc(c(-c4ccc(S(=O)(=O)NC(Cc5ccccc5)C(=O)OC)cc4)c4ccc([nH]4)c(-c4ccc(S(=O)(=O)NC(Cc5ccccc5)C(=O)OC)cc4)c4nc(c(-c5ccc(S(=O)(=O)NC(Cc6ccccc6)C(=O)OC)cc5)c5ccc2[nH]5)C=C4)C=C3)cc1 (stereo not drawn) ?
n

Lab log entry: "COc1cc(/C=N/N=C(\N)NO)c([N+](=O)[O-])cc1OC" — outcome as called in the assay?
n

Recorded test call requested for CNC(=O)OC(C)CN1c2ccccc2Sc2ccccc21 (stereo not drawn)
n

What outcome does the record of this test show for "Cc1ccc2c(c1)[nH]c(=S)n2/C=C1\C(=O)Oc2ccccc2C1=O" ?
n

Which outcome did this test record for the compound CCOc1ccc(NC2=NC(=O)C(CC(=O)Nc3ccc(Cl)cc3Cl)S2)cc1 (stereo not drawn) ?
n

What classification did "Cc1cc2c(cc1C)C(=O)/C(=N/Nc1ccc(F)cc1)CCO2" end up with in this test?
n

I'd appreciate the recorded outcome for "Cc1cc(S(=O)(=O)Nc2nnc3cnc4ccccc4n23)c(S)cc1Cl" from this test.
n

How was "O=C(N[C@H](CO)[C@H](O)c1ccc([N+](=O)[O-])cc1)C(Cl)Cl" classified in this test?
n

* * *

Can you tell me GI50 for the items I'm about to list?
Test system: Hs-578T
Test method notes: NCI tumour cell line growth inhibition, 48 h
Calls of active or inactive are those of the source. Cut-off read from the data, not from the text of the source: active = GI50 up to about 1.1 µM and inactive = higher.

May I ask what GI50 has been recorded for "CCCc1cc(=O)oc2c3c(c4c(c12)OC(C)(C)CC4)O[C@H](C)[C@@H](C)[C@H]3O" ?
22.6 µM (inactive)

What value of GI50 has been recorded for this entry: C=C1CC(COc2cc(=O)oc3ccccc23)(c2ccccc2)OC1=O (stereo not drawn)
3.53 µM (inactive)

Give the measured GI50 of COc1ccc(/C=C2\CCC(C)C3C2=NN(c2ccccc2)C3c2ccc(OC)c(OC)c2)cc1OC (stereo not drawn) .
7.29 µM (inactive)

Entry source: ChEMBL document CHEMBL1201862
